Values from patent US20240391948A1

Tested on: J774A.1 (Mouse BALB/c monocyte macrophage cell line) cells
Experiment: LPS-induced TNF-α secretion inhibition in J774A.1 cells
Assay type: cell-based
Conditions: J774.A1, 1 μM compound, graded compared to taurodeoxycholic acid (positive control), read-out: TNF-α production inhibition grade
Below: a set of entries, each annotated with reported inhibition at 1 µM.

entry smiles	inhibition at 1 µM
C[C@H](CCC(=O)N1CCC[C@H]1CS(=O)(=O)O)[C@H]1CC[C@H]2[C@@H]3CC[C@@H]4C[C@H](O)CC[C@]4(C)[C@H]3C[C@H](O)[C@]12C	< 20%

Record C[C@H](CCC(=O)N[C@H]1CCCC[C@H]1S(=O)(=O)O)[C@H]1CC[C@H]2[C@@H]3CC[C@@H]4C[C@H](O)CC[C@]4(C)[C@H]3CC[C@]12C / J774A.1 (Mouse BALB/c monocyte macrophage cell line) cells, inhibition at 1 µM recorded as > 100%

Record C[C@H](CCC(=O)N1CCC[C@H](S(=O)(=O)O)C1)[C@H]1CC[C@H]2[C@@H]3CC[C@@H]4C[C@H](O)CC[C@]4(C)[C@H]3CC[C@]12C / J774A.1 (Mouse BALB/c monocyte macrophage cell line) cells, inhibition at 1 µM recorded as < 20%

Record CC[C@H]1[C@@H](O)[C@@H]2[C@H](CC[C@]3(C)[C@@H]([C@H](C)CCC(=O)NC[C@@H](C)S(=O)(=O)O)CC[C@@H]23)[C@@]2(C)CC[C@@H](O)C[C@@H]12 / J774A.1 (Mouse BALB/c monocyte macrophage cell line) cells, inhibition at 1 µM recorded as < 20%

Record CC[C@H]1[C@@H](O)[C@@H]2[C@H](C[C@H](O)[C@]3(C)[C@@H]([C@H](C)CCC(=O)N[C@H](CC(C)C)CS(=O)(=O)O)CC[C@@H]23)[C@@]2(C)CC[C@@H](O)C[C@@H]12 / J774A.1 (Mouse BALB/c monocyte macrophage cell line) cells, inhibition at 1 µM recorded as < 20%

###

Test system: J774A.1 (Mouse BALB/c monocyte macrophage cell line) cells
Test: LPS-induced TNF-α secretion inhibition in J774A.1 cells
Format: cell-based
Details: J774.A1, 1 μM compound, graded compared to taurodeoxycholic acid (positive control), read-out: TNF-α production inhibition grade
Below: a set of entries, each annotated with reported inhibition at 1 µM.

entry smiles	inhibition at 1 µM
C[C@H](CCC(=O)N[C@H](CO)CS(=O)(=O)O)[C@H]1CC[C@H]2[C@@H]3CC[C@@H]4CC(=O)CC[C@]4(C)[C@H]3CC[C@]12C	> 100%

// moving on: another record for inhibition at 1 µM
Per the records, this compound ( C[C@H](CCC(=O)N[C@H](CS(=O)(=O)O)c1ccccc1)[C@H]1CC[C@H]2[C@@H]3[C@H](O)C[C@@H]4C[C@H](O)CC[C@]4(C)[C@H]3C[C@H](O)[C@]12C ) has inhibition at 1 µM equal to < 20%

###

System: U937 cells (human monocytic cell line)
Test: BzATP-induced IL-1β secretion inhibition in PMA-differentiated U937 cells
Assay type: cell-based
Conditions: U-937, U937 cells differentiated with PMA, read-out: IL-1β production inhibition grade (IC50)
Below: a set of entries, each annotated with reported IC50.

Below: 8 compounds and their reported IC50.
compound	IC50
C[C@H](CCC(=O)N1CCC(S(=O)(=O)O)CC1)[C@H]1CC[C@H]2[C@@H]3CC[C@@H]4C[C@H](O)CC[C@]4(C)[C@H]3C[C@H](O)[C@]12C [NC10011]	< 50 nM
CC(C)C[C@H](CS(=O)(=O)O)NC(=O)CC[C@@H](C)[C@H]1CC[C@H]2[C@@H]3CC[C@@H]4CC(=O)CC[C@]4(C)[C@H]3CC[C@]12C [NC30031]	≥ 200 nM
C[C@H](CCC(=O)N(CCN(C)C)CCS(=O)(=O)O)[C@H]1CC[C@H]2[C@@H]3[C@H](O)C[C@@H]4C[C@H](O)CC[C@]4(C)[C@H]3C[C@H](O)[C@]12C [NC20035]	50 to 100 nM
C[C@H](CCC(=O)N[C@@H](CO)CS(=O)(=O)O)[C@H]1CC[C@H]2[C@@H]3CC[C@@H]4C[C@H](O)CC[C@]4(C)[C@H]3C[C@H](O)[C@]12C [NC10040]	≥ 200 nM
C[C@H](CCC(=O)NCCCO)[C@H]1CC[C@H]2[C@@H]3CC[C@@H]4C[C@H](O)CC[C@]4(C)[C@H]3C[C@H](O)[C@]12C [NC10021]	50 to 100 nM
CC[C@H]1[C@@H](O)[C@@H]2[C@H](C[C@H](O)[C@]3(C)[C@@H]([C@H](C)CCC(=O)N[C@H](C)CS(=O)(=O)O)CC[C@@H]23)[C@@]2(C)CC[C@@H](O)C[C@@H]12 [NC50029]	≥ 200 nM
C[C@H](CCC(=O)N[C@H](Cc1ccccc1)CS(=O)(=O)O)[C@H]1CC[C@H]2[C@@H]3CC[C@@H]4C[C@H](O)CC[C@]4(C)[C@H]3CC[C@]12C [NC10066]	< 50 nM
CC[C@H]1[C@@H](O)[C@@H]2[C@H](C[C@H](O)[C@]3(C)[C@@H]([C@H](C)CCC(=O)NCCC(=O)O)CC[C@@H]23)[C@@]2(C)CC[C@@H](O)C[C@@H]12 [NC50002]	≥ 200 nM

Per the records, this compound ( C[C@H](CCC(=O)N[C@@H](CO)CS(=O)(=O)O)[C@H]1CC[C@H]2[C@@H]3[C@H](O)C[C@@H]4C[C@H](O)CC[C@]4(C)[C@H]3C[C@H](O)[C@]12C [NC20024] ) has IC50 equal to ≥ 200 nM

Per the records, this compound ( C[C@H](CCC(=O)N1CCC[C@@H]1CS(=O)(=O)O)[C@H]1CC[C@H]2[C@@H]3CC[C@@H]4CC(=O)CC[C@]4(C)[C@H]3CC[C@]12C [NC30020] ) has IC50 equal to ≥ 200 nM

Per the records, this compound ( C[C@H](CCC(=O)NCCCO)[C@H]1CC[C@H]2[C@@H]3[C@H](O)C[C@@H]4C[C@H](O)CC[C@]4(C)[C@H]3C[C@H](O)[C@]12C [NC20003] ) has IC50 equal to 50 to 100 nM

Per the records, this compound ( CC[C@H]1[C@@H](O)[C@@H]2[C@H](C[C@H](O)[C@]3(C)[C@@H]([C@H](C)CCC(=O)N[C@H](CC(C)C)CS(=O)(=O)O)CC[C@@H]23)[C@@]2(C)CC[C@@H](O)C[C@@H]12 [NC50031] ) has IC50 equal to 50 to 100 nM

###

Below: a set of entries, each annotated with reported IC50.
System: U937 cells (human monocytic cell line)
Assay: BzATP-induced IL-1β secretion inhibition in PMA-differentiated U937 cells
Type: cell-based
Settings: U-937, U937 cells differentiated with PMA, read-out: IL-1β production inhibition grade (IC50)

Below: 6 compounds and their reported IC50.
compound	assay result
CC[C@H]1[C@@H](O)[C@@H]2[C@H](C[C@H](O)[C@]3(C)[C@@H]([C@H](C)CCC(=O)N4CCC[C@H]4CS(=O)(=O)O)CC[C@@H]23)[C@@]2(C)CC[C@@H](O)C[C@@H]12 [NC50021]	≥ 0.2 µM
CC[C@H]1[C@@H](O)[C@@H]2[C@H](CC[C@]3(C)[C@@H]([C@H](C)CCC(=O)NCCC(=O)O)CC[C@@H]23)[C@@]2(C)CC[C@@H](O)C[C@@H]12 [NC40002]	≥ 0.2 µM
C[C@H](CCC(=O)NCCCO)[C@H]1CC[C@H]2[C@@H]3CC[C@@H]4C[C@H](O)CC[C@]4(C)[C@H]3CC[C@]12C [NC10054]	0.05 to 0.1 µM
C[C@H](CCC(=O)N[C@H](Cc1ccccc1)CS(=O)(=O)O)[C@H]1CC[C@H]2[C@@H]3CC[C@@H]4C[C@H](O)CC[C@]4(C)[C@H]3C[C@H](O)[C@]12C [NC10031]	0.05 to 0.1 µM
C[C@H](CCC(=O)N[C@@H](Cc1ccccc1)CS(=O)(=O)O)[C@H]1CC[C@H]2[C@@H]3CC[C@@H]4CC(=O)CC[C@]4(C)[C@H]3CC[C@]12C [NC30014]	≥ 0.2 µM
C[C@H](CCC(=O)N1CCC[C@H]1CS(=O)(=O)O)[C@H]1CC[C@H]2[C@@H]3CC[C@@H]4CC(=O)CC[C@]4(C)[C@H]3CC[C@]12C [NC30021]	0.05 to 0.1 µM

Record C[C@H](CCC(=O)N[C@@H](C)CS(=O)(=O)O)[C@H]1CC[C@H]2[C@@H]3CC[C@@H]4C[C@H](O)CC[C@]4(C)[C@H]3CC[C@]12C [NC10084] / U937 cells (human monocytic cell line), IC50 recorded as ≥ 0.2 µM

Record C[C@H](CCC(=O)N[C@H](CS(=O)(=O)O)c1ccccc1)[C@H]1CC[C@H]2[C@@H]3CC[C@@H]4CC(=O)CC[C@]4(C)[C@H]3CC[C@]12C [NC30018] / U937 cells (human monocytic cell line), IC50 recorded as ≥ 0.2 µM

Record CC[C@H]1[C@@H](O)[C@@H]2[C@H](CC[C@]3(C)[C@@H]([C@H](C)CCC(=O)N4CCC[C@H]4CS(=O)(=O)O)CC[C@@H]23)[C@@]2(C)CC[C@@H](O)C[C@@H]12 [NC40021] / U937 cells (human monocytic cell line), IC50 recorded as ≥ 0.2 µM

Record C[C@H](CCC(=O)N[C@@H]1CCCC[C@@H]1S(=O)(=O)O)[C@H]1CC[C@H]2[C@@H]3CC[C@@H]4CC(=O)CC[C@]4(C)[C@H]3CC[C@]12C [NC30026] / U937 cells (human monocytic cell line), IC50 recorded as ≥ 0.2 µM

Record CC[C@H]1[C@@H](O)[C@@H]2[C@H](C[C@H](O)[C@]3(C)[C@@H]([C@H](C)CCC(=O)N[C@H](CS(=O)(=O)O)C(C)C)CC[C@@H]23)[C@@]2(C)CC[C@@H](O)C[C@@H]12 [NC50016] / U937 cells (human monocytic cell line), IC50 recorded as 0.05 to 0.1 µM
